test system: LXRb homodimer (NR concentration 270 nM); test: PBM binding z-score (relative to random genomic background probes); higher = stronger binding; sequences stand for … in GC…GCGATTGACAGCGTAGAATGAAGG
Given measured PBM binding z-score, output met if it is greater than or equal to -0.5 and not met if not.

# input Test whether the sequence CAATCTAGGTCAAGAGGTCAAAGTCCGCTTCCCG records PBM binding z-score of -0.5 or higher.
# output met

# input Test whether the sequence GCTAGTTGGTCAGTAAAAGGTCTCACACCGGTCG records PBM binding z-score of -0.5 or higher.
# output met

# input Test whether the sequence TAGCCTAGGCCAGATCGGGCCAGTATACGCTATA records PBM binding z-score of -0.5 or higher.
# output not met

# input Test whether the sequence CATGCAGGGTCAGCTAGGCCAGAGTAGGGACGGC records PBM binding z-score of -0.5 or higher.
# output met

###

system: PPARg homodimer (NR concentration 180 nM); assay: PBM binding z-score (relative to random genomic background probes); higher = stronger binding; sequences stand for … in GC…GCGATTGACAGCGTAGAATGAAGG
Assign PBM binding z-score to each entry below.
Answers are plain numbers.

For each entry beneath this line, provide reported PBM binding z-score.
1. TCCTATAGGTAATACAGGTGAAAGTCGGCATCTA
2. CGAACTAGGTCATTGACAGGACAGTGTATAGTAA
3. ATCTGTAGGTAAGACTCAGTTCAGTGAAGAACGC

# output
1: 0.164; 2: 2.13; 3: 0.0779

For each entry beneath this line, provide reported PBM binding z-score.
1. AGAACGAGGGCACGCTGAGTGGATAGCAGAGTAG
2. TCGAGTAGGTTATGGGCATTCAGAATGGCGTCGA
3. AGAACGAGGGCACGCTGAGTTGATATCAGAGTAG
4. TAGCCTAGGTCATATCGGGCCAGTATACGCTATA
5. TAGCCTAGGTCAGATCGAGCCAGTATACGCTATA
6. CCTCGAAGGACAGAAGGTCAGAGCTGTCCGCTTT

# output
1: 0.149; 2: 0.0273; 3: 0.168; 4: 0.54; 5: -0.43; 6: 1.14

For each entry beneath this line, provide reported PBM binding z-score.
1. ATCTCTAGGTAATACTCAGTTCAGTGAAGAACGC
2. ATATGTAGGGTACATCCGGGTCATTCAGGCTATG
3. ACTATCAGTTGAGACGAGGGCAACCGATAGGTTG
4. TCTATTAGTTGAAGGGCAACAGACGAGTCCGTTT
5. AGAACGAGGGCACGCTGAGTTGTTAGCAGAGTAG
6. ATCTCTAGGTAAAGTTCAGTGAAAGATCGATAGA
7. CGAACCAGGGCATGAGTTGATAGCAAATGCCGAT

# output
1: 1.53; 2: 1.74; 3: 0.148; 4: 1.01; 5: -0.208; 6: 1.68; 7: 0.228

For each entry beneath this line, provide reported PBM binding z-score.
1. ATCGAAAGGTCGTGAGGTGAGCATACAGAAAGGC
2. AGTCAAAGTTCACTTGGTAACGTAAGATTCAGCT
3. ATCTCTAGGTAACAAGTTCAGTAAAAGAGAGGAC
4. CGAACTAGGTCATCGACAGGACAGTGAATAGTAA
5. AGCTCTAGGTAAGACTCAGTTCAGTGAAGAACGC
6. ACAGACAGGTGATGAACGTAACTCAGGCTATCAT
7. TTACCAAGGTGAAAGGTCGTTGTTGCACGCCTTG

# output
[0.137, 1.76, 1.34, 2.79, -0.0493, -0.201, 1.39]

For each entry beneath this line, provide reported PBM binding z-score.
1. TCATATAGGTAAGCAGGTGAAAGTCCGTAAGTTA
2. TCTTGTAGATCAGAGGTTAAGAAAGCCGAAGCCT
3. TCGAGTAGGTTAGTCGGGGGATTCAGCCAACATA
4. TAGCCTAGGTCATTGGGTCAGTATAGTACGCATC
5. CTGACTGGGGCAGAAAGGTTACCATACCATCCGG
6. TAGCCTAGGTCATGCAGGGGCCAGTATAGAAAGC

# output
1. 0.516
2. 0.818
3. 0.49
4. 3.71
5. 1.76
6. 1.36

For each entry beneath this line, provide reported PBM binding z-score.
1. TCGAGTAGGTTACAAATGGGGCATTCAGCTTTCT
2. AGTCAAAGTTCATCTAGGTAAGGTAAGATATGCT
3. ACAGACACGTGAGTGAAGGTAACTCAGCTGGACG
4. TTACCAAGGTGAGCTTAGGTCGTTGATCCAACTC
5. ATACCAAGGTGATCATGAGGTCGTTGATACTAAC
6. CGAACTAGCTCAGAACAGGACAGTGAAGGATGAT

# output
[0.131, 3.1, -0.539, -0.601, 0.68, -0.71]

For each entry beneath this line, provide reported PBM binding z-score.
1. CAAACTAAGTCAAAGGTCAAAGTCGAGCCAACCA
2. CGTCCAAGGCCATAGGAGGTCAGTGAAGACAGAT
3. CCTATTAGTTGACCATAAGGGCAGCCGAAGCTCG

# output
1. 5.3
2. 0.925
3. 1.6

For each entry beneath this line, provide reported PBM binding z-score.
1. GATACAGGGTCAAGGCCAGAGGACGCGTATTGAT
2. GATACAGTGTCAGCTAGAGGCCAGAGTATGGAAA

# output
1: 2.75; 2: -0.286
